Target: T1, mouse IGFBP7 recombinant protein (mouse, UniProt Q61581 26-281, biotinylated with EZ-LINK NHS-PEG4 biotin in the BLI assays (sites not given))
T1 chain: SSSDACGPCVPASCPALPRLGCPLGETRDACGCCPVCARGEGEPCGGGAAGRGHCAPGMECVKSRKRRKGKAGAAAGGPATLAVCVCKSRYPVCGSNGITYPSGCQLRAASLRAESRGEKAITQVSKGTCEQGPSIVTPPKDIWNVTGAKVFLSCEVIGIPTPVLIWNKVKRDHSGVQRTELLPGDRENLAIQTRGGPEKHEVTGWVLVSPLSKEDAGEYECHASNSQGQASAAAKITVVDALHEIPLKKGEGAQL
Experiment: BLI
The reader will find reported Kd values listed item by item below.
Entry rule: numbers only, all in nM.

- bispecific anti-IGFBP7 nanobody Fc-fusion construct A1D4-mIgG2a (bispecific antibody) VQLQESGGGLVQAGGSLRLSCAASGSLFAIDKWGWYRQVAGNERELVAWRYSPVSINYGDSVKGRFTVSGDSSRKRVYLQMNSLKPDDTAVYRCAAVISGAWYWGQGTQVTVSSVQLQESGGGLVQTGGSLRLSCAASGRSFTFSSYAMGWFRHAPGKEREFLTAITWSGDYTYYTDSVKGRSTISRDNAKNTVYLQLNNLKPEDTAVYYCAAKFSQVSAFFATVSEYEYWGQGTQVTVSS: 1.07
- A1-mIgG1 nanobody Fc-fusion (Fc fusion, VHH fused with mIgG1 Fc fragment, expressed in Expi293 cells; also called monospecific A1-mIgG1; not shown: mouse IgG1 Fc fragment (mIgG1 Fc)) VQLQESGGGLVQAGGSLRLSCAASGSLFAIDKWGWYRQVAGNERELVAWRYSPVSINYGDSVKGRFTVSGDSSRKRVYLQMNSLKPDDTAVYRCAAVISGAWYWGQGTQVTVSS: 25.8

# next binder below
The binder identified as A1-mIgG2a nanobody Fc-fusion (Fc fusion, VHH fused with mIgG2a Fc fragment, expressed in Expi293 cells, Protein G purified; also called monoclonal A1-mIgG2a; monospecific A1-mIgG2a; not shown: mouse IgG2a Fc fragment (mIgG2a Fc)) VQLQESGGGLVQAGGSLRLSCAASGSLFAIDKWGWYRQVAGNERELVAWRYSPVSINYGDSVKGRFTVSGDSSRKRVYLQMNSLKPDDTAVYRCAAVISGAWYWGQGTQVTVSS registered its Kd at 25.8
